molecular target: Human P2Y12 (Homo sapiens, UniProt Q9H244); construct: expressed in transfected cells; host or cells: HEK cells (membrane preparation); test: [^33P]-2MeS-ADP Binding to Recombinant Human P2Y12 Membranes (Assay 3); conditions: highest concentration tested 10 μM
Sequence (Q9H244 whole entry): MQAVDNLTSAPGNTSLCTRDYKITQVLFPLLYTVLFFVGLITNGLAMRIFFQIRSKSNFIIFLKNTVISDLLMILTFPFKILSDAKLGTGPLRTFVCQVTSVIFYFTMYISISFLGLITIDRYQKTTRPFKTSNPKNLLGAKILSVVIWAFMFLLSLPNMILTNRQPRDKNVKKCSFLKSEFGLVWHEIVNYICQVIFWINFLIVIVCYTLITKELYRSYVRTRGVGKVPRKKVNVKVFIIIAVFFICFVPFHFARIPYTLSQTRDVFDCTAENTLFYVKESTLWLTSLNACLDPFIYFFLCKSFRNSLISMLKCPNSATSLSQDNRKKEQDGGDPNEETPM
READOUT LABEL: inhibition at 10 µM (%)
A number alone suffices; assume %.

GET /value?item= CCc1cc2c(N3CCN(C(=O)c4ccc(-c5ccccc5)cc4)CC3)nc(NC(=O)c3cccnc3)nc2s1 &field=inhibition at 10 µM returns 89

GET /value?item= CCc1cc2c(N3CCN(C(=O)c4ccc(-c5ccccc5)cc4)CC3)nc(NC(=O)C(C)C)nc2s1 &field=inhibition at 10 µM returns 90

GET /value?item= CCc1cc2c(N3CCN(C(=O)c4ccc(-c5ccccc5)cc4)CC3)nc(NC(=O)CN)nc2s1 &field=inhibition at 10 µM returns 85

GET /value?item= CCc1cc2c(N3CCN(C(=O)c4ccc(-c5ccccc5)cc4)CC3)nc(NC(=O)COCc3ccccc3)nc2s1 &field=inhibition at 10 µM returns 84

GET /value?item= CCc1cc2c(N3CCN(C(=O)c4ccc(-c5ccccc5)cc4)CC3)nc(NC(=O)C3OC(OC)[C@@H]4OC(C)(C)O[C@H]34)nc2s1 (stereo partly drawn) &field=inhibition at 10 µM returns 76.7

GET /value?item= CCc1cc2c(N3CCN(C(=O)c4ccc(-c5ccccc5)cc4)CC3)nc(NC(=O)NCC(=O)O)nc2s1 &field=inhibition at 10 µM returns 95.4
